Target: human androgen receptor (Homo sapiens)
Construct: expressed in transfected cells; host or cells: CHO cells, cell line CHO-AR-pMMTV-LUC 1G12-A5-CA
Sequence (P10275 1-920): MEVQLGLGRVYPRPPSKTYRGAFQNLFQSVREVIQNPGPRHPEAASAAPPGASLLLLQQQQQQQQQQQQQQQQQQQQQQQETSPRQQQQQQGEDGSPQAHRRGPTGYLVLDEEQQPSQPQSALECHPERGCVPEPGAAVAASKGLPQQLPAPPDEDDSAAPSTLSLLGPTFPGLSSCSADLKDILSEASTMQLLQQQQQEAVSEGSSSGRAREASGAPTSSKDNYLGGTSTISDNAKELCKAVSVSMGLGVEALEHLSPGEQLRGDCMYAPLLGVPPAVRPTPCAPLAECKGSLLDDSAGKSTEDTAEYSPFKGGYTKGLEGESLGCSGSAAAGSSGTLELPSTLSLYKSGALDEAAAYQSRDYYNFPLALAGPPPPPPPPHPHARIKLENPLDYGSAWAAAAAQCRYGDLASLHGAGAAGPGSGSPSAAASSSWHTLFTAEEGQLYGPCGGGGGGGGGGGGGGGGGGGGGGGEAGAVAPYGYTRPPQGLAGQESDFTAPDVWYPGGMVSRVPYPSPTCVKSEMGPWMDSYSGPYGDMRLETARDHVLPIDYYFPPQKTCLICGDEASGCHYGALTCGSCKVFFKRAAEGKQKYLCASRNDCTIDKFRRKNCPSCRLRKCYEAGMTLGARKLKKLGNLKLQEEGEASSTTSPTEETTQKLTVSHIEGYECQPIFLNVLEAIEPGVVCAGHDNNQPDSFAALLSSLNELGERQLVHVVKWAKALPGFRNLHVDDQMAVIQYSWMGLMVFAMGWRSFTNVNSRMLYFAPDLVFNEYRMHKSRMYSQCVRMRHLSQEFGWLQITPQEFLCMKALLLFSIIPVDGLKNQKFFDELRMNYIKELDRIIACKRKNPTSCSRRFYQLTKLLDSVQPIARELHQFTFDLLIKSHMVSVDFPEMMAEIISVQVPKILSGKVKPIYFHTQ
Assay: cell-based
Details: antiandrogenic activity, in the presence of 1 nM DHT; read-out: ant EC50
The following compounds are listed with their measured EC50 values.

Illustrative cases are given below, each with its answer.
| input smiles | EC50 |
| --- | --- |
| CN(C)CCNC(=O)c1ccc2c(Sc3ccccc3[N+](=O)[O-])cn(Cc3cc(F)cc(F)c3)c2c1 | > 10000 nM |
| COc1ccc2c(S(=O)(=O)c3ccccc3[N+](=O)[O-])cn(Cc3cc(F)cc(F)c3)c2c1 | > 10000 nM |
| COc1ccc2c(Sc3cccc[n+]3[O-])cn(Cc3cc(F)cc(F)c3)c2c1 | 5 to 100 nM |
| COc1ccc2c(Sc3ccccc3CO)cn(Cc3cc(F)cc(F)c3)c2c1 | 5 to 100 nM |

Would you kindly look at the next entry?
Query: Dear colleague, please send me the reported EC50 for "O=C(NCc1cccnc1)c1ccc2c(Sc3ccccc3[N+](=O)[O-])cn(Cc3cc(F)cc(F)c3)c2c1" when you can.
Reply: > 10000 nM

# credit: patent US8124647B2
